Data credit: ChEMBL document CHEMBL1909602

# System: Pichia kudriavzevii
# assayOverview: Antifungal activity against Candida krusei ATCC 6258 after 24 hrs by serial dilution method
# Format: functional
# assayConditions: ATCC 6258, 24 h
Assign MIC80 to each entry below.
Give bare numbers, in µg/mL.

Below, 2 molecules whose answers are already recorded.
1) O=c1n(-c2ccc(Br)cc2)cnn1CCCN1CCN(CC(O)(Cn2cncn2)c2ccc(F)cc2F)CC1 (racemic)
1
2) Cc1ccc(-n2cnn(CCCN3CCN(CC(O)(Cn4cncn4)c4ccc(F)cc4F)CC3)c2=O)c(C)c1 (racemic)
1

Shifting focus to the molecule that follows.
# input molecule: O=c1n(-c2ccc(F)c(Cl)c2)cnn1CCCN1CCN(CC(O)(Cn2cncn2)c2ccc(F)cc2F)CC1 (racemic) ; wanted: its MIC80 0.25

====

Assign MIC80 to each entry below.
# System: Candida albicans
# assayOverview: Antifungal activity against Candida albicans Y0109 after 24 hrs by serial dilution method
# Type: functional
# assayConditions: Y0109, 24 h
Answers are plain numbers, in µg/mL.

Below, 4 compounds whose answers are already recorded.
1) O=c1n(-c2ccc(Cl)c(Cl)c2)cnn1CCCN1CCN(CC(O)(Cn2cncn2)c2ccc(F)cc2F)CC1 (racemic)
0.0625
2) O=c1n(-c2ccc(F)c(Cl)c2)cnn1CCCN1CCN(CC(O)(Cn2cncn2)c2ccc(F)cc2F)CC1 (racemic)
0.0625
3) O=c1n(-c2ccc(Br)cc2)cnn1CCCN1CCN(CC(O)(Cn2cncn2)c2ccc(F)cc2F)CC1 (racemic)
0.25
4) O=c1n(-c2cccc(Cl)c2)cnn1CCCN1CCN(CC(O)(Cn2cncn2)c2ccc(F)cc2F)CC1 (racemic)
0.0625

Shifting focus to the compound that follows.
Candida albicans / MIC80 / `OC(Cn1cncn1)(Cn1cncn1)c1ccc(F)cc1F` : value? 0.25

====

Assign MIC80 to each entry below.
# System: Cryptococcus neoformans
# assayOverview: Antifungal activity against Cryptococcus neoformans 32609 after 72 hrs by serial dilution method
# Format: functional
# assayConditions: Cryptococcus neoformans, 32609, 72 h
Give bare numbers, in µg/mL.

Below, 5 molecules whose answers are already recorded.
1) O=c1n(-c2ccc(I)cc2)cnn1CCCN1CCN(CC(O)(Cn2cncn2)c2ccc(F)cc2F)CC1 (racemic)
4
2) Cc1ccc(-n2cnn(CCCN3CCN(CC(O)(Cn4cncn4)c4ccc(F)cc4F)CC3)c2=O)cc1Cl (racemic)
1
3) Cc1ccc(-n2cnn(CCCN3CCN(CC(O)(Cn4cncn4)c4ccc(F)cc4F)CC3)c2=O)cc1[N+](=O)[O-] (racemic)
16
4) Cc1ccc(-n2cnn(CCCN3CCN(CC(O)(Cn4cncn4)c4ccc(F)cc4F)CC3)c2=O)c(C)c1 (racemic)
8
5) O=c1n(-c2ccccc2)cnn1CCCN1CCN(CC(O)(Cn2cncn2)c2ccc(F)cc2F)CC1 (racemic)
8

Value sought for every listed molecule: MIC80.
1. CC(C)(C)c1ccc(-n2cnn(CCCN3CCN(CC(O)(Cn4cncn4)c4ccc(F)cc4F)CC3)c2=O)cc1 (racemic)
2. O=c1n(-c2ccc(F)c(Cl)c2)cnn1CCCN1CCN(CC(O)(Cn2cncn2)c2ccc(F)cc2F)CC1 (racemic)

1
1

# input molecule: O=c1n(-c2ccc(Cl)cc2)cnn1CCCN1CCN(CC(O)(Cn2cncn2)c2ccc(F)cc2F)CC1 (racemic) ; wanted: its MIC80 4
